systemName: HIV-1 Env of isolate MGRM-G-025 (subtype G), on pseudovirus (HIV-1)
testMethodNotes: cell-based or functional assay
measuredParameter: IC50 (µg/mL), neutralization of pseudovirus

PGT-136 (antibody, V domains shown) VH: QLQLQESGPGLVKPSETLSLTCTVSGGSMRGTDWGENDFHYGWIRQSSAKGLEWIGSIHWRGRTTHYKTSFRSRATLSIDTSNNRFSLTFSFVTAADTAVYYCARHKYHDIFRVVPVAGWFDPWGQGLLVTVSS VL: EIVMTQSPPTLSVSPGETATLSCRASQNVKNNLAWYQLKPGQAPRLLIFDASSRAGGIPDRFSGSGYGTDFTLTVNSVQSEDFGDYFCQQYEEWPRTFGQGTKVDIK; > 50 µg/mL
PGT-137 (antibody, V domains shown) VH: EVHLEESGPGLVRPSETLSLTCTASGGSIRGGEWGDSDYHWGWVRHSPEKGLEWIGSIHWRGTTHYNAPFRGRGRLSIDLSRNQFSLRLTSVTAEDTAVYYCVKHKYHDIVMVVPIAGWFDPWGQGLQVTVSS VL: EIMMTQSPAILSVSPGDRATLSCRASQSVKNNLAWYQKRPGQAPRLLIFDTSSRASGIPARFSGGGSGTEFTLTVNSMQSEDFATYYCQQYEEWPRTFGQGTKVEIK; > 50 µg/mL

Query PGT-125 (antibody, V domains shown) VH: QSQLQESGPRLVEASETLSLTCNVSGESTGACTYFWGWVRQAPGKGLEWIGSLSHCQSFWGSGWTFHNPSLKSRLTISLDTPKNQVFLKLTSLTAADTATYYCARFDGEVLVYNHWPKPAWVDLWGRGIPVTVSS VL: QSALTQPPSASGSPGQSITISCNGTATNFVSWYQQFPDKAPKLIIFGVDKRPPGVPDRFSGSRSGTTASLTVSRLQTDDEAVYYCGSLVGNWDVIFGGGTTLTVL yields IC50 (µg/mL), neutralization of pseudovirus of > 50 µg/mL
